Reference source: the supplement of paper PMC10724198

tested on: Saccharomyces cerevisiae; assay: protein stability index of tFT-peptide fusion (C-terminal peptide) (PSI (0-1 scale)); higher = more stable (slower turnover); settings: genetic background: das1 deletion; temperature: 37 C;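 also: PSI is a weighted mean of sequencing reads over stability bins, variants kept only with over 10 reads, mCherry proximal and sfGFP distal, peptide attached via GGGS linker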
# maps each entry to its protein stability index
Quick one: just the number, no unit, thanks!

Below: 5 sequences and their reported protein stability index.
entry-sequence	protein stability index
LLMCCLPFLWVF	0.468
LMLISFLFLSLL	0.529
YLCFVVSCGVLR	0.529
SPCLPRGVLFLA	0.716
VIRIRLSCSVDV	0.411

Query: protein stability index; subject: LRFYLLTPPSPA
0.631

Quick one: protein stability index of TLWWRQPFWGFG ?
0.8

Please give the measured protein stability index for this sequence: VFLLLSLSVFFE
0.225

# input sequence: NWAIEIRSVKIV ; wanted: its protein stability index
0.708

Would you kindly share the measured protein stability index for GWVVVVCGVCCG ?
0.307
